Recorded measurements of HEMATOCRIT, one per entry
Species on record: Rattus norvegicus
experimental.details: DrugMatrix - Regimen: Daily Repeat
Format: toxicity, organism-based, Sprague-Dawley
Design: regimen Daily Repeat, gender Male, age 6-8 weeks
measurement.conditions: in vivo, po, 0 mg/kg, 120 h, tissue Blood, route oral GAVAGE, dose level Control, time 5 day, vehicle 100 % WATER
Your answer should be a number followed by the unit of measure.

[[record]]
molecule = "CCN(C(C)=O)c1cccc(-c2ccnc3c(C#N)cnn23)c1"
readout_value = "36.88%"


// recorded HEMATOCRIT for "CN(C)CCC=C1c2ccccc2CCc2ccccc21" : 36.88%

Quick note, HEMATOCRIT for "C#Cc1cccc(Nc2ncnc3cc(OCCOC)c(OCCOC)cc23)c1" landed at 46.82%

Query "NC12CC3CC(CC(C3)C1)C2" yields HEMATOCRIT of 36.88%

HEMATOCRIT in this record for O=c1[nH]c(=O)n(C2CCCO2)cc1F (stereo unspecified) : 36.13%

* * *

Documented GLUCOSE across a set of molecules
Species: Rattus norvegicus
experimental.details: DrugMatrix - Regimen: Daily Repeat
Assay type: toxicity, organism-based, Sprague-Dawley
Design: regimen Daily Repeat, gender Male, age 6-8 weeks
measurement.conditions: in vivo, po, 0 mg/kg, 120 h, tissue Plasma, route oral GAVAGE, dose level Control, time 5 day, vehicle .5 % CMC
Answer with a number only, understood to be in mg/dL.

Some solved cases for reference:
[[record]]
molecule = "CCn1cc(C(=O)O)c(=O)c2cc(F)c(N3CCNC(C)C3)c(F)c21 (stereo not drawn) [LOMEFLOXACIN]"
readout = "GLUCOSE"
readout_unit = "mg/dL"
readout_value = 171.33

[[record]]
molecule = "CCC1=C(C)CN(C(=O)NCCc2ccc(S(=O)(=O)NC(=O)N[C@H]3CC[C@H](C)CC3)cc2)C1=O [GLIMEPIRIDE]"
readout = "GLUCOSE"
readout_unit = "mg/dL"
readout_value = 177.83

[[record]]
molecule = "CN(C)CCN(Cc1cccs1)c1ccccn1"
readout = "GLUCOSE"
readout_unit = "mg/dL"
readout_value = 179.5

[[record]]
molecule = "CN1CCN(C2=Nc3cc(Cl)ccc3Nc3ccccc32)CC1 [CLOZAPINE]"
readout = "GLUCOSE"
readout_unit = "mg/dL"
readout_value = 167.67

[[record]]
molecule = "CCCCC1=NC2(CCCC2)C(=O)N1Cc1ccc(-c2ccccc2-c2nnn[nH]2)cc1 [IRBESARTAN]"
readout = "GLUCOSE"
readout_unit = "mg/dL"
readout_value = 139.67

[[record]]
molecule = "C[C@@H]1O[C@@H](O[C@H]2C[C@@H](O)[C@]3(CO)[C@H]4[C@H](O)C[C@]5(C)[C@@H](C6=CC(=O)OC6)CC[C@]5(O)[C@@H]4CC[C@]3(O)C2)[C@H](O)[C@H](O)[C@H]1O [OUABAIN]"
readout = "GLUCOSE"
readout_unit = "mg/dL"
readout_value = 152.33

[[record]]
molecule = "COc1cc(OC)c(C(=O)CCCN2CCCC2)c(OC)c1 [BUFLOMEDIL]"
readout = "GLUCOSE"
readout_unit = "mg/dL"
readout_value = 165.67


Let us move to another entry and its GLUCOSE.
Measured GLUCOSE of "CCOc1nc2cccc(C(=O)O)c2n1Cc1ccc(-c2ccccc2-c2nnn[nH]2)cc1" : 158
